- Format: cell-based
Square brackets hold non-standard residues; d marks the D form. Peptide text beside a SMILES is read from it. * marks the point of attachment. Acetyl(thymin-1-yl) = Cc1cn(CC(=O)*)c(=O)[nH]c1=O; NBD = O=[N+]([O-])c1ccc(*)c2nonc12
measured-endpoint: pIC50
Lab note: report pIC50 as minus log10 of the concentration in molar units, number only.

stdin: Consider the compound Cc1cn(CC(=O)N[C@H](Cc2ccccc2)C(=O)N[C@H](Cc2ccccc2)C(=O)N[C@H](CCCCN)C(=O)N[C@H](CCCCN)C(=O)N[C@H](Cc2ccccc2)C(=O)N[C@H](CCCCN)C(=O)N[C@H](CC(C)C)C(=O)N[C@H](CCCCN)C(=O)N[C@H](CC(C)C)C(=O)N[C@H](CCCCNc2ccc([N+](=O)[O-])c3nonc23)C(=O)O)c(=O)[nH]c1=O [D-1] ({Acetyl(thymin-1-yl)}-[dF][dF][dK][dK][dF][dK][dL][dK][dL][dK](NBD)-OH; N-terminus and C-terminus assumed) and give its measured pIC50.
stdout: 4.06
